test system: Saccharomyces cerevisiae; experiment: transcriptional activation domain activity (GFP:mCherry ratio, weighted mean of sorted bins, harmonized to initial dataset scale) (arbitrary fluorescence ratio units); higher = stronger transcriptional activation; conditions: beta-estradiol 1 µM; induction time 4 h
Assay Readout: transcriptional activation domain activity
I'd appreciate a reply containing only the number, no unit.

>  <Input Sequence>
ILMLFLGCLVICDLAFNIIVTILAFTTGFTHLLLSLVPTIPPPNCFLVHWQNH

>  <Result>
54600

$$$$
>  <Input Sequence>
YEASNHPEFDLNADVGLVIQVLEQTHSHTPIKLCSLIVKLQVVSGFLSYLESD

>  <Result>
32800

$$$$
>  <Input Sequence>
LKGDHLDAVMVPKCESAADLHFVTDVIRHLRPDRHPSSTASASSSGSRREPVR

>  <Result>
33200

$$$$

Consider now this further sequence.
Query: Identify measured transcriptional activation domain activity associated with AVVILGDLHPRGYNSNWFLMYYTGWLTFIFFITLLWALANLAWLRYTARVLPC
Reply: 29300

====

Listing of recorded transcriptional activation domain activity by entry.
system: Saccharomyces cerevisiae; assay: transcriptional activation domain activity (GFP:mCherry ratio, weighted mean of sorted bins, harmonized to initial dataset scale) (arbitrary fluorescence ratio units); higher = stronger transcriptional activation; details: beta-estradiol 1 µM; induction time 4 h
I'd appreciate a reply containing only the number, no unit.

Check out these entries, answers already filled in.
>  <Input Sequence>
RMLFPNVQELHWEAQNFEKSPLLNMFMGLHLTEIYFTFSAGSYAQMTWIPIMY

>  <Result>
33300

$$$$
>  <Input Sequence>
SFIHSLLYAFLSFFPHLFISYFLSSFYYLSTHLFLSFFPFLVILFTSCYQNLS

>  <Result>
57700

$$$$
>  <Input Sequence>
PVAPPAASQPHPTANTMQATHAPPSSGRRRGRPKGSKNKPKPEAPTGPEASAG

>  <Result>
6790

$$$$
>  <Input Sequence>
MCPVLFCFYSLMILIFFLSFLFRTSYIYTLYFPGLFVCCLFFLFLLFLSLSQW

>  <Result>
73200

$$$$
>  <Input Sequence>
KAAEKPAPAVSPSAPAAKAVHHNNNSNAKKQEQQQQQRAKSPAAASASAPAPA

>  <Result>
16600

$$$$

Query: Identify measured transcriptional activation domain activity associated with SSDYSIAQFRFLLKLLLVHGRWNYVRICKYILGTFYKEFMFYLTQLIYQRNTM
Reply: 39600

Query: Identify measured transcriptional activation domain activity associated with HDLLVDSLRLVMELLKAPGGLSVHALTAHLNILSFTVRLLDLCLDMALETPHH
Reply: 84900

====

Listing of recorded transcriptional activation domain activity by entry.
system: Saccharomyces cerevisiae; experiment: transcriptional activation domain activity (GFP:mCherry ratio, weighted mean of sorted bins, harmonized to initial dataset scale) (arbitrary fluorescence ratio units); higher = stronger transcriptional activation; settings: beta-estradiol 1 µM; induction time 4 h
I'd appreciate a reply containing only the number, no unit.

>  <Input Sequence>
TVKEEEEEVKAKPAAAKVSRVRKAAAAKAQSEPEKDVAGPAPKTRAARTRAAS

>  <Target Of Assay>
Saccharomyces cerevisiae

>  <Result>
48100

$$$$
>  <Input Sequence>
LPHFPIIHPSLLDLDLDSLQRYTNEDGYDDAENAQLFDRLSQGTDKEYDYEHY

>  <Target Of Assay>
Saccharomyces cerevisiae

>  <Result>
71500

$$$$
>  <Input Sequence>
LADNKFSYLPPTLEELMEEQDCNNGRSFKNFMFSNDTGIDGSAGTDDDYTKVL

>  <Target Of Assay>
Saccharomyces cerevisiae

>  <Result>
60000

$$$$
>  <Input Sequence>
ILDLTVRFWGNVKLLRRLWNGIYHFASYHMSSMTRAKVTIVSDLLLGTYILKR

>  <Target Of Assay>
Saccharomyces cerevisiae

>  <Result>
70700

$$$$
>  <Input Sequence>
SGNTGENEEDIAFASGLNGGTFDSMLEALPDDLYFTDFVSPFTAAATTSVTTK

>  <Target Of Assay>
Saccharomyces cerevisiae

>  <Result>
85100

$$$$

Query: Identify measured transcriptional activation domain activity associated with EVSEESGDSGDDEGRKEKKKRKRVKEEEVEDEGERKKKKSKKSKDEKSAEKAD
Reply: 47600

Query: Identify measured transcriptional activation domain activity associated with KGETAFVEVDEFNRRKDGKEEGGVHNSDMVIKVYLPPHFRVRIALFVLAIWAF
Reply: 23800

Query: Identify measured transcriptional activation domain activity associated with MWTFGMIQLYYSPYWGDTRWFWLDYPKTLLSPTFKWYYLIQFAFWLQQLLLAL
Reply: 73400
